Measured interaction score values are reported for all entries that follow.
tgt: T1, O7-bA
T1 chain: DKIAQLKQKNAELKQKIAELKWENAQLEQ
test description: two-hybrid library CCNG1;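 further: natural log of median RNA to DNA barcode read ratio; higher means stronger binding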

[
  {
    "binder": "DEIAQLEQKIAELKQKNAELKWKNAQLKQ [O12-bA]",
    "interaction score": -0.372
  },
  {
    "binder": "DKNAQLKQKIAELKQKNAELKWEIAQLEQ [O13-bA]",
    "interaction score": -1.07
  },
  {
    "binder": "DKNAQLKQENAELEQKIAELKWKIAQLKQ [O10-bA]",
    "interaction score": 0.923
  },
  {
    "binder": "DENAQLEQKNAELKQKIAELKWKIAQLKQ [O2-bA]",
    "interaction score": -0.0715
  },
  {
    "binder": "DKIAQLKQKNAELKQEIAELEWKNAQLKQ [O16-bA]",
    "interaction score": 1.33
  },
  {
    "binder": "DEIAQLEQENAELEQKIAELKWENAQLEQ [O15-bA]",
    "interaction score": 1.63
  },
  {
    "binder": "DEIAQLEQKIAELKQENAELEWENAQLEQ [O3-bA]",
    "interaction score": -0.831
  }
]
